Test system: ERBB4
REPORTED CONDITIONS: concentration: 1 μM, replicates: in singlicate; n = 1;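 note: KINOMEscan kinase panel screen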
QUANTITY NAME: %Inh (%)
All answers are understood in %, so give the number only.

Task item: Report %Inh for `O=c1cc(N2CCOCC2)nc2n(Cc3cccc4ccccc34)ccn12` please.
Reply: 0

Task item: Reported %Inh for `NS(=O)(=O)c1cccc(-c2ccc3ncc(N4CCOCC4)nc3c2)c1` : what is it?
Reply: 1

Task item: Given the compound `CC(=O)Nc1ccc(COc2ccc(Nc3ccnc4cc(-c5ccccn5)ccc34)cc2)cc1.Cl` , what is its reported %Inh?
Reply: 73

Task item: I'd like to know its %Inh. The compound in question is `c1ccc(-c2n[nH]cc2-c2ccnc3ccccc23)nc1`
Reply: 25

Task item: Fill in the blank: the reported %Inh of Cc1nnc(-c2ccc3occ(-c4ccc(C(C)O)cc4)c3c2)o1 (stereo not drawn) is ____.
Reply: 0

Task item: Give the measured %Inh of `Cc1c2ccc(N(C)c3ccnc(Nc4cccc(S(N)(=O)=O)c4)n3)cc2nn1Cc1ccccc1.Cl.Cl` .
Reply: 0

Task item: Can you look up the measured %Inh of NCC(NC(=O)c1cc(-c2cn[nH]c2)c(-c2ccnc3[nH]ccc23)s1)c1ccccc1.O=C(O)C(F)(F)F.O=C(O)C(F)(F)F (stereo not drawn) for me?
Reply: 10

Task item: # input compound: `O=c1cc(N2CCOCC2)nc2n(Cc3cccc(F)c3)ccn12` ; wanted: its %Inh
Reply: 0

Task item: Dear colleague, I am looking for the recorded %Inh of the following compound: `Cc1cccc(-c2nc(-c3ccc(S(C)(=O)=O)cc3)sc2-c2ccncc2)c1`
Reply: 0

Task item: Please give the measured %Inh for this compound: `CCCCCc1nc2c(N)ncnc2n1CCCCC`
Reply: 0

Task item: For the compound shown here, COc1ccc(Nc2nccc(N3CCC(NC(=O)Nc4cc(C)ccc4C)C3)n2)cc1 (stereo not drawn) , give the reported %Inh.
Reply: 52

Task item: Could you tell me which %Inh is on file for `CCn1cnc2c(N)ncnc21` ?
Reply: 0

Task item: What measured %Inh goes with `N#Cc1ccc(-c2cc(-c3c[nH]nc3-c3ccccn3)ccn2)cc1` ?
Reply: 27

Task item: Looking for the measured %Inh of `CN(C(=O)c1ccc(-c2cc(-c3c[nH]nc3-c3ccccn3)ccn2)cc1)C1CCOCC1` , can you help?
Reply: 0

Task item: Looking for the measured %Inh of `O=C(NCCCN1CCOCC1)c1cccc(Nc2nccc(Nc3ccc(Oc4ccccc4)cc3)n2)c1` , can you help?
Reply: 79

Task item: I have this compound here, Cc1nnc(-c2ccc3ncc(-c4ccc(S(C)=O)cc4)n3c2)o1 (stereo not drawn) , and I need its recorded %Inh.
Reply: 0

Task item: Fill in the blank: the reported %Inh of COc1ccc(CNC(=O)NC2CCN(c3ccnc(Nc4ccc(OC)cc4)n3)C2)cc1 (stereo not drawn) is ____.
Reply: 2

Task item: Could you share which %Inh value was measured for `Cc1cccc(-c2nc(Nc3ccc4ncsc4c3)c3ccccc3n2)n1` ?
Reply: 25

----------
Field: %Inh. Provide a value for each of the molecules that follow.
Tested on: TIE2
Construct: gene TEK
REPORTED CONDITIONS: concentration: 1 μM, replicates: in singlicate; n = 1
All answers are understood in %, so give the number only.

Task item: Reported %Inh for `Cl.Cl.Cl.Fc1ccc(-c2ncn(C3CCNCC3)c2-c2ccnc(Nc3ccccc3)n2)cc1` : what is it?
Reply: 0

Task item: Consider the molecule shown here: `Cc1cn2c(=O)cc(N3CCOCC3)nc2n1Cc1cccc(Cl)c1Cl` What is its recorded %Inh?
Reply: 19

Task item: I would be grateful if you could share the reported %Inh for `O=C(NCCNc1ccnc(Nc2ccc(F)cc2)n1)Nc1ccccc1F` .
Reply: 0

Task item: Field request: %Inh | item: `Fc1ccc(-c2ncn(CCCN3CCOCC3)c2-c2cccnc2)cc1`
Reply: 0

Task item: What does the record list as %Inh for COc1ccc(CNC(=O)NC2CCN(c3ccnc(Nc4ccc(OC)cc4)n3)C2)cc1 (centres unmarked) ?
Reply: 0

Task item: May I ask what %Inh has been recorded for `Fc1ccc(-c2nn3c(OCC(F)(F)F)cccc3c2-c2ccncc2)cc1` ?
Reply: 0

Task item: Consider the molecule shown here: `Cc1cccc(-c2nc(Nc3ccc4ncsc4c3)c3ccccc3n2)n1` What is its recorded %Inh?
Reply: 0

Task item: Which value of %Inh has been reported for `Cn1ccc2ncnc(Oc3ccc(NC(=O)Nc4ccncc4)c(Cl)c3)c21` in the records?
Reply: 5

Task item: What value of %Inh has been reported for the following molecule? `c1ccc(-c2n[nH]cc2-c2ccnc3ccccc23)nc1`
Reply: 0

Task item: Entry Cc1nnc(-c2ccc3ncc(-c4ccc(S(C)=O)cc4)n3c2)o1 (centres unmarked) : reported %Inh = ?
Reply: 6

Task item: Which %Inh value is on record for `Fc1ccc(-c2ncn(CCCN3CCOCC3)c2-c2ccccn2)cc1` ?
Reply: 27

Task item: Returns the measured %Inh for the input molecule. Input: `N#Cc1c(N2CCOCC2)sc(-c2ccn[nH]2)c1-c1ccc(Cl)cc1`
Reply: 5

Task item: Any idea what its %Inh is? The molecule is Cc1nnc(-c2ccc3occ(-c4ccc(C(C)O)cc4)c3c2)o1 (centres unmarked)
Reply: 16

Task item: Give the measured %Inh of `CCc1ccnc(/C=C/c2n[nH]c3cc(Sc4ccccc4C(=O)NC)ccc23)c1` .
Reply: 8

Task item: So what's the measured %Inh for this one? COc1cc(Nc2nccc(N3CCC(NC(=O)c4cccc(NC(C)=O)c4)C3)n2)cc(OC)c1OC (centres unmarked)
Reply: 0

Task item: Look up %Inh: `NS(=O)(=O)CCc1cccc(Nc2nccc(-c3c(-c4cccc(NC(=O)c5c(F)cccc5F)c4)nn4ccccc34)n2)c1`
Reply: 91.1

Task item: Given COc1ccc(Nc2nccc(N3CCC(NC(=O)Nc4cccc(C(C)=O)c4)C3)n2)cc1 (centres unmarked) , state its recorded %Inh.
Reply: 0

Task item: Consider the molecule `O=c1cc(N2CCOCC2)nc2n(Cc3cccc4ccccc34)ccn12` and give its measured %Inh.
Reply: 0

Task item: Name the reported %Inh value associated with the molecule `Cc1ccc(NC(=O)c2ccnc(N3CCN(C)CC3)c2)cc1-c1ccc(C(=O)NCC2CC2)cc1`
Reply: 0

Task item: Suppose we examine the molecule `N#Cc1ccc(-c2cc(-c3c[nH]nc3-c3ccccn3)ccn2)cc1` ; what %Inh value has been reported?
Reply: 0

Task item: What value of %Inh has been recorded for this entry: `COc1cc2c(cc1OCCN1CCN(C)CC1)ncc1c3ccc(C#N)cc3[nH]c21`
Reply: 6

Task item: Quick one: %Inh of `O=c1cc(N2CCOCC2)nc2n(Cc3cccc(C(F)(F)F)c3)ccn12` ?
Reply: 0

Task item: For the molecule `COc1ccc(Nc2ncc(C#N)c(Nc3ccccc3C(N)=O)n2)cc1N1CCN(C)CC1.Cl` , what %Inh is on record?
Reply: 97.2

Task item: Entry `O=C(NCCCN1CCOCC1)c1cccc(Nc2nccc(Nc3ccc(Oc4ccccc4)cc3)n2)c1` has what %Inh?
Reply: 0

Task item: Any idea what its %Inh is? The molecule is `NS(=O)(=O)c1cccc(-c2ccc3ncc(N4CCOCC4)nc3c2)c1`
Reply: 0

Task item: Given the molecule COc1ccc(Nc2nccc(N3CCC(NC(=O)Nc4cc(C)ccc4C)C3)n2)cc1 (centres unmarked) , what is its reported %Inh?
Reply: 0

Task item: So what's the measured %Inh for this one? `CCn1cnc2c(N)ncnc21`
Reply: 2

Task item: Given the entry `c1ccc(-c2cc(-c3c[nH]nc3-c3ccccn3)ccn2)cc1` , report its measured %Inh.
Reply: 0

Task item: Given the molecule `Cc1cccc(Cn2ccn3c(=O)cc(N4CCOCC4)nc23)c1` , what is its reported %Inh?
Reply: 0

Task item: Reported %Inh for `CNc1ncnc2[nH]ncc12` : what is it?
Reply: 2

Task item: // returns reported %Inh for input `O=C1Cc2cc(Nc3nc(NCc4cccc(S(=O)(=O)C(F)(F)F)c4)ncc3C(F)(F)F)ccc2N1`
Reply: 0

Task item: Item `COC(=O)Nc1nc2cc(Oc3ccc(NC(=O)Nc4cc(F)ccc4F)cc3)ccc2[nH]1.Cl` has what recorded %Inh?
Reply: 73
